Every entry's value here was drawn from ChEMBL document CHEMBL2010722.

test-system: Dual specificity tyrosine-phosphorylation-regulated kinase 2 (Homo sapiens, UniProt Q92630)
Sequence (Q92630 whole entry): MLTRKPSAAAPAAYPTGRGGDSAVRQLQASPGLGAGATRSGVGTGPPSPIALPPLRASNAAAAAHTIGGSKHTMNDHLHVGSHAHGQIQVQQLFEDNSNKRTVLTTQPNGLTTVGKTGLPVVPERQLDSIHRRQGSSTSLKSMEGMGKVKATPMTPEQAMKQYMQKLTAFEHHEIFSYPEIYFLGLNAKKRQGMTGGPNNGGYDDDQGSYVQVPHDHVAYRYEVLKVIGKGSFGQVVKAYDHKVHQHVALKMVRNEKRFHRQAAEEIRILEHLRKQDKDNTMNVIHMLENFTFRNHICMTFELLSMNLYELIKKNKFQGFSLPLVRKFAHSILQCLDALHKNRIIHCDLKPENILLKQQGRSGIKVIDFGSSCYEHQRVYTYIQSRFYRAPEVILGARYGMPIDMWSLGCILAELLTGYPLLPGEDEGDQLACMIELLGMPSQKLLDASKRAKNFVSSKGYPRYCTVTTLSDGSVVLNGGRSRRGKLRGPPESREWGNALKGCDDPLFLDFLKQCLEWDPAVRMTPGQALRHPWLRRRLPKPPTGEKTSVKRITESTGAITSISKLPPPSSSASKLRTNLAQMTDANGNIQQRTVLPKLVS
Parameter: IC50. Scope: all listed entries.

given-smiles	IC50
COc1ccc2c3ccnc(C(F)(F)F)c3n(CCCCN)c2c1	15 µM

Item `Cc1nccc2c3ccc(NS(C)(=O)=O)cc3n(CCCCN)c12` has what recorded IC50?
> 10 µM

Item `COc1cccc2c3ccnc(C)c3n(CCCCN)c12` has what recorded IC50?
> 10 µM

Item `Cc1nccc2c3ccc(OC(C)(C)C)cc3n(CCCCN)c12` has what recorded IC50?
> 10 µM
